experiment: Plasma and brain concentrations after subcutaneous administration (LC-MS/MS); format: in vivo, C57Bl/6J mice; conditions: male, C57Bl/6J, mouse, brain; 3.0 mg/kg subcutaneous, mice, 30 min after injection, mean (SEM); read-out: Brain concentration
ATTRIBUTE MEASURED: concentration at 30 min (ng/g)
Response body: numeric value in ng/g, unit text excluded.

Inquiry: Give concentration at 30 min for the following compound: CN(C)C1CCc2c(cccc2-c2ccccc2F)C1 (single isomer, unassigned; (+)) [(+)-5-FPT]
Reply text: 1780

----------
experiment: Plasma and brain concentrations after subcutaneous administration (LC-MS/MS); assay type: in vivo, C57Bl/6J mice; conditions: male, C57Bl/6J, mouse, brain; 3.0 mg/kg subcutaneous, mice, 90 min after injection, mean (SEM); read-out: Brain concentration
ATTRIBUTE MEASURED: concentration at 90 min (ng/g)
Response body: numeric value in ng/g, unit text excluded.

Inquiry: Give concentration at 90 min for the following molecule: CN(C)C1CCc2c(cccc2-c2ccccc2F)C1 (single isomer, unassigned; (+)) [(+)-5-FPT]
Reply text: 1460

Every entry's value here was drawn from patent US10548856B2.
